Biological target: 5-hydroxytryptamine receptor 6 (Homo sapiens, UniProt P50406)
Sequence (P50406 whole entry): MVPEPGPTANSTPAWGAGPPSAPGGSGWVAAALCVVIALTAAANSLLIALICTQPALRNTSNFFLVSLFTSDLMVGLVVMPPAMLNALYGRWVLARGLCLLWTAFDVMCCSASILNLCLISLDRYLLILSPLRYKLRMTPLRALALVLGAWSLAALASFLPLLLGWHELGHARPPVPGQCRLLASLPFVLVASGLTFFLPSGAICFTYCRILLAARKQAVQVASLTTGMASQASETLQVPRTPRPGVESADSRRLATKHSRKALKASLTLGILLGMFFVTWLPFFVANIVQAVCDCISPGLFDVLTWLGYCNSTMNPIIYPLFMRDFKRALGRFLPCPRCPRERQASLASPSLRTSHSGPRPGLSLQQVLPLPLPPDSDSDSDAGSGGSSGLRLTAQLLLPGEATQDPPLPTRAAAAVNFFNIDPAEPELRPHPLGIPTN
Assay: Agonist activity at human 5HT6 expressed in HeLa cells assessed as intracellular cAMP level by radioimmunoassay
pEC50: −log10 of the molar value.

| Compound | pEC50 |
| --- | --- |
| O=S(=O)(c1cccc(Cl)c1)c1cn(C2CCCNC2)c2ncccc12 (stereo not given) | 7.52 |
| CN1CCCC(n2cc(S(=O)(=O)c3cccc(F)c3)c3cccnc32)C1 (stereo not given) | 6.51 |
| CN1CCCC(n2cc(S(=O)(=O)c3cc(Cl)cc(Cl)c3)c3cccnc32)C1 (stereo not given) | 7.41 |
| CN1CCCC(n2cc(S(=O)(=O)c3c(Cl)nc4sccn34)c3cccnc32)C1 (stereo not given) | 7.60 |
| O=S(=O)(c1cccc(C(F)(F)F)c1)c1cn(C2CCNC2)c2ncccc12 (stereo not given) | 6.28 |
